For each record, write down the corresponding NOP pEC50 (CL95%).
Target: human NOP receptor (Homo sapiens, UniProt P41146)
Construct: expressed in transfected cells; host or cells: CHO cells stably coexpressing the receptor and chimeric Gαqi5
Sequence (P41146 whole entry): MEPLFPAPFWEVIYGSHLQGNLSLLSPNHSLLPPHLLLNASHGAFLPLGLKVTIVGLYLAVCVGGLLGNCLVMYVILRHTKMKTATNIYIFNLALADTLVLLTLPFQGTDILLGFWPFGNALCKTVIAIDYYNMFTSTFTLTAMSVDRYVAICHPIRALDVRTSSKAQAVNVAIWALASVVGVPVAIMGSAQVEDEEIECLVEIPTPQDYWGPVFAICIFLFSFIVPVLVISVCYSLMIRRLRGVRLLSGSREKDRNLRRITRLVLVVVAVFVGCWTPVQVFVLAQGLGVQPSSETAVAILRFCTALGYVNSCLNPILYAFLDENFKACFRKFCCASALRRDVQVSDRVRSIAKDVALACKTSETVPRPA
Experiment: Calcium mobilization, NOP receptor
Assay type: cell-based
Conditions: Table 2 series; CHO cells coexpressing human NOP and Gαqi5, Fluo-4 AM, 37 °C; mean of at least three experiments in duplicate; CL95% in brackets
Where a SMILES comes first, the peptide text is derived from it. [ ]: non-standard residue; d: D form. Bip = N[C@@H](Cc1ccc(-c2ccccc2)cc1)C(=O)O; Dip = N[C@H](C(=O)O)C(c1ccccc1)c1ccccc1; 1Nal = N[C@@H](Cc1cccc2ccccc12)C(=O)O; 2Nal = N[C@@H](Cc1ccc2ccccc2c1)C(=O)O; hPhe = N[C@@H](CCc1ccccc1)C(=O)O; Phg = N[C@H](C(=O)O)c1ccccc1

Known results for compounds:
* C[C@H](NC(=O)CNC(=O)[C@H](Cc1ccc(-c2ccccc2)cc1)NC(=O)[C@H](Cc1ccccc1)NC(=O)CNC(=O)CNC(=O)[C@@H](N)Cc1ccc(O)cc1)C(=O)N[C@@H](CCCNC(=N)N)C(=O)N[C@@H](CCCCN)C(=O)N[C@@H](CO)C(=O)N[C@@H](C)C(=O)N[C@@H](CCCNC(=N)N)C(=O)N[C@@H](CCCCN)C(N)=O [Compound 24, [Tyr^1,Bip^5]N/OFQ(1-13)-NH2] (H-YGGF[Bip]GARKSARK-NH2) | 6.93 (6.63–7.22)
* C[C@H](NC(=O)CNC(=O)[C@H](CCc1ccccc1)NC(=O)[C@H](Cc1ccccc1)NC(=O)CNC(=O)CNC(=O)[C@@H](N)Cc1ccc(O)cc1)C(=O)N[C@@H](CCCNC(=N)N)C(=O)N[C@@H](CCCCN)C(=O)N[C@@H](CO)C(=O)N[C@@H](C)C(=O)N[C@@H](CCCNC(=N)N)C(=O)N[C@@H](CCCCN)C(N)=O [Compound 18, [Tyr^1,hPhe^5]N/OFQ(1-13)-NH2] (H-YGGF[hPhe]GARKSARK-NH2) | 8.70 (8.24–9.16)
* C[C@H](NC(=O)CNC(=O)[C@H](Cc1cccc2ccccc12)NC(=O)[C@H](Cc1ccccc1)NC(=O)CNC(=O)CNC(=O)[C@@H](N)Cc1ccc(O)cc1)C(=O)N[C@@H](CCCNC(=N)N)C(=O)N[C@@H](CCCCN)C(=O)N[C@@H](CO)C(=O)N[C@@H](C)C(=O)N[C@@H](CCCNC(=N)N)C(=O)N[C@@H](CCCCN)C(N)=O [Compound 25, [Tyr^1,1Nal^5]N/OFQ(1-13)-NH2] (H-YGGF[1Nal]GARKSARK-NH2) | 7.17 (6.82–7.52)
* C[C@H](NC(=O)CNC(=O)[C@@H](NC(=O)[C@H](Cc1ccccc1)NC(=O)CNC(=O)CNC(=O)[C@@H](N)Cc1ccc(O)cc1)c1ccccc1)C(=O)N[C@@H](CCCNC(=N)N)C(=O)N[C@@H](CCCCN)C(=O)N[C@@H](CO)C(=O)N[C@@H](C)C(=O)N[C@@H](CCCNC(=N)N)C(=O)N[C@@H](CCCCN)C(N)=O [Compound 19, [Tyr^1,Phg^5]N/OFQ(1-13)-NH2] (H-YGGF[Phg]GARKSARK-NH2) | 7.57 (7.12–8.02)
* C[C@H](NC(=O)CNC(=O)[C@@H](NC(=O)[C@H](Cc1ccccc1)NC(=O)CNC(=O)CNC(=O)[C@@H](N)Cc1ccc(O)cc1)C(c1ccccc1)c1ccccc1)C(=O)N[C@@H](CCCNC(=N)N)C(=O)N[C@@H](CCCCN)C(=O)N[C@@H](CO)C(=O)N[C@@H](C)C(=O)N[C@@H](CCCNC(=N)N)C(=O)N[C@@H](CCCCN)C(N)=O [Compound 23, [Tyr^1,Dip^5]N/OFQ(1-13)-NH2] (H-YGGF[Dip]GARKSARK-NH2) | 6.61 (6.13–7.09)

Consider the additional compound presented here.
What does the record list as NOP pEC50 (CL95%) for C[C@H](NC(=O)CNC(=O)[C@H](Cc1ccc2ccccc2c1)NC(=O)[C@H](Cc1ccccc1)NC(=O)CNC(=O)CNC(=O)[C@@H](N)Cc1ccc(O)cc1)C(=O)N[C@@H](CCCNC(=N)N)C(=O)N[C@@H](CCCCN)C(=O)N[C@@H](CO)C(=O)N[C@@H](C)C(=O)N[C@@H](CCCNC(=N)N)C(=O)N[C@@H](CCCCN)C(N)=O [Compound 26, [Tyr^1,2Nal^5]N/OFQ(1-13)-NH2] (H-YGGF[2Nal]GARKSARK-NH2) ?
6.82 (6.60–7.04)

----------
Target: human NOP receptor (Homo sapiens)
Construct: expressed in transfected cells; host or cells: CHO cells stably coexpressing the receptor and chimeric Gαqi5
Test: Calcium mobilization, NOP receptor
Assay type: cell-based
Settings: read-out: NOP Emax ± S.E.M., Table 1 series; maximum change in fluorescence as percent over the baseline fluorescence; mean ± SEM of at least three experiments in duplicate; SEM
Where no end group is shown, it is not given here.
Hi there, I'd appreciate the recorded Emax for every entry that follows.
Answers are plain numbers, in %.

Here's what some known entries look like.
* YGGFNGARKSARK-NH2 [Compound 4, [Tyr^1,Asn^5]N/OFQ(1-13)-NH2] | 327
* YGGFVGARKSARK-NH2 [Compound 5, [Tyr^1,Val^5]N/OFQ(1-13)-NH2] | 334
* YGGFKGARKSARK-NH2 [Compound 8, [Tyr^1,Lys^5]N/OFQ(1-13)-NH2] | 366
* YGGFLGARKSARK-NH2 [Compound 11, [Tyr^1,Leu^5]N/OFQ(1-13)-NH2] | 339
* YGGFK(Ac)GARKSARK-NH2 [Compound 6, [Tyr^1,Lys(Ac)^5]N/OFQ(1-13)-NH2] | 370
* YGGFTGARKSARK-NH2 [Compound 3, [Tyr^1]N/OFQ(1-13)-NH2, reference compound] | 380

Next, consider the following substance.
Sample YGGFYGARKSARK-NH2 [Compound 14, [Tyr^1,5]N/OFQ(1-13)-NH2] — what was its Emax?
332

----------
Target: human mu receptor (Homo sapiens)
Construct: expressed in transfected cells; host or cells: CHO cells stably coexpressing the receptor and chimeric Gαqi5
Assay: Calcium mobilization, mu opioid receptor
Type: cell-based
Details: molecular formula strings CSV; repeats calcium mobilization values of Tables 1-3
Where a SMILES comes first, the peptide text is derived from it. [ ]: non-standard residue; d: D form. Dab = NCC[C@H](N)C(=O)O; Dap = NC[C@H](N)C(=O)O
measured parameter: pEC50_mu

• COc1ccc(C[C@H](NC(=O)[C@H](Cc2ccccc2)NC(=O)CNC(=O)CNC(=O)[C@@H](N)Cc2ccc(O)cc2)C(=O)NCC(=O)N[C@@H](C)C(=O)N[C@@H](CCCNC(=N)N)C(=O)N[C@@H](CCCCN)C(=O)N[C@@H](CO)C(=O)N[C@@H](C)C(=O)N[C@@H](CCCNC(=N)N)C(=O)N[C@@H](CCCCN)C(N)=O)cc1 [Compound 20, [Tyr^1,p(OCH3)Phe^5]N/OFQ(1-13)-NH2] (H-YGGFY(Me)GARKSARK-NH2) = crc incomplete
• C[C@H](NC(=O)CNC(=O)[C@H](CN)NC(=O)[C@H](Cc1ccccc1)NC(=O)CNC(=O)CNC(=O)[C@@H](N)Cc1ccc(O)cc1)C(=O)N[C@@H](CCCNC(=N)N)C(=O)N[C@@H](CCCCN)C(=O)N[C@@H](CO)C(=O)N[C@@H](C)C(=O)N[C@@H](CCCNC(=N)N)C(=O)N[C@@H](CCCCN)C(N)=O [Compound 9, [Tyr^1,Dap^5]N/OFQ(1-13)-NH2] (H-YGGF[Dap]GARKSARK-NH2) = crc incomplete
• C[C@H](NC(=O)CNC(=O)[C@H](CCN)NC(=O)[C@H](Cc1ccccc1)NC(=O)CNC(=O)CNC(=O)[C@@H](N)Cc1ccc(O)cc1)C(=O)N[C@@H](CCCNC(=N)N)C(=O)N[C@@H](CCCCN)C(=O)N[C@@H](CO)C(=O)N[C@@H](C)C(=O)N[C@@H](CCCNC(=N)N)C(=O)N[C@@H](CCCCN)C(N)=O [Compound 10, [Tyr^1,Dab^5]N/OFQ(1-13)-NH2] (H-YGGF[Dab]GARKSARK-NH2) = crc incomplete

----------
Target: human mu receptor (Homo sapiens, UniProt P35372)
Construct: expressed in transfected cells; host or cells: CHO cells stably coexpressing the receptor and chimeric Gαqi5
Sequence (P35372 whole entry): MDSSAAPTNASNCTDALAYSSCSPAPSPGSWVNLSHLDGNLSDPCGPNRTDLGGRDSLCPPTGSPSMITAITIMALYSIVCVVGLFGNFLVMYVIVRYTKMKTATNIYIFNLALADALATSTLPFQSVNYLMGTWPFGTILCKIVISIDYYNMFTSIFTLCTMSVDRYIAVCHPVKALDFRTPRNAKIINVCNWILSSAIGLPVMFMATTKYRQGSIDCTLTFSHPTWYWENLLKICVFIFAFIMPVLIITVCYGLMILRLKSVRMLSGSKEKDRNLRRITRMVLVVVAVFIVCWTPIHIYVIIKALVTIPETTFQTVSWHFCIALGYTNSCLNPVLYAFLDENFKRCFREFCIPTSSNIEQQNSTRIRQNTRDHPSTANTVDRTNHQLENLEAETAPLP
Assay: Calcium mobilization, mu opioid receptor
Type: cell-based
Settings: Table 2 series; CHO cells coexpressing human mu receptor and Gαqi5, Fluo-4 AM, 37 °C; mean of at least three experiments in duplicate; CL95% in brackets
Where no end group is shown, it is not given here.
measured parameter: mu pEC50 (CL95%)

Entry YGGFFGARKSARK-NH2 [Compound 15, [Tyr^1,Phe^5]N/OFQ(1-13)-NH2] has what mu pEC50 (CL95%)?
6.41 (5.85–6.97)
